The variants listed here are annotated with their SGCB cell-surface expression functional score (log10).
B1: library; numbered along this chain (parent)
chain: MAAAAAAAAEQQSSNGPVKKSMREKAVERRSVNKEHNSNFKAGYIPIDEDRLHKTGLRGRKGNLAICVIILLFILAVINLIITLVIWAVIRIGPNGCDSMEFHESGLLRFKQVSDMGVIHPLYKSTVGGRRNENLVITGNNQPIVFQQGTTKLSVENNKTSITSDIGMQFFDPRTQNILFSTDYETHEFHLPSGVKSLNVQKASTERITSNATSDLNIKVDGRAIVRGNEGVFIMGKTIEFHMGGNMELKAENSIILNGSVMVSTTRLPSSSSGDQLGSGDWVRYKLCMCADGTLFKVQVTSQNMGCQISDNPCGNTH

- Variants of: B1
- procedureDetails: SGCB cell-surface expression functional score (HA stain, bin4 vs bin1, normalised to synonymous) (log10 ratio); higher = more cell-surface SGCB (functional)
The response must contain the number and no unit.

[[record]]
mutantcode = "L107H"
observedresult = -0.67

[[record]]
mutantcode = "K297M"
observedresult = 0.17

[[record]]
mutantcode = "A26E"
observedresult = 0.27


IN: Provide only the value of recorded SGCB cell-surface expression functional score (log10) for "N199E"
OUT: -0.68

IN: Provide only the value of recorded SGCB cell-surface expression functional score (log10) for "R174Q"
OUT: -1.07

IN: Provide only the value of recorded SGCB cell-surface expression functional score (log10) for "E240C"
OUT: 0.37

IN: Provide only the value of recorded SGCB cell-surface expression functional score (log10) for "F180C"
OUT: -1.87

IN: Provide only the value of recorded SGCB cell-surface expression functional score (log10) for "L71V"
OUT: 0.22

IN: Provide only the value of recorded SGCB cell-surface expression functional score (log10) for "S14H"
OUT: 0.09

IN: Provide only the value of recorded SGCB cell-surface expression functional score (log10) for "G117V"
OUT: -1.36

IN: Provide only the value of recorded SGCB cell-surface expression functional score (log10) for "V195Y"
OUT: -2.58

IN: Provide only the value of recorded SGCB cell-surface expression functional score (log10) for "K202W"
OUT: -0.14

IN: Provide only the value of recorded SGCB cell-surface expression functional score (log10) for "S114Q"
OUT: -1.66

IN: Provide only the value of recorded SGCB cell-surface expression functional score (log10) for "V32K"
OUT: -0.04

IN: Provide only the value of recorded SGCB cell-surface expression functional score (log10) for "V113D"
OUT: -0.21

IN: Provide only the value of recorded SGCB cell-surface expression functional score (log10) for "S271H"
OUT: -0.19

IN: Provide only the value of recorded SGCB cell-surface expression functional score (log10) for "G315N"
OUT: 0.02

IN: Provide only the value of recorded SGCB cell-surface expression functional score (log10) for "R267D"
OUT: -0.54

IN: Provide only the value of recorded SGCB cell-surface expression functional score (log10) for "V136E"
OUT: 0.05

IN: Provide only the value of recorded SGCB cell-surface expression functional score (log10) for "E104H"
OUT: 0.28

IN: Provide only the value of recorded SGCB cell-surface expression functional score (log10) for "A26C"
OUT: -0.13

IN: Provide only the value of recorded SGCB cell-surface expression functional score (log10) for "E188F"
OUT: -1.65

IN: Provide only the value of recorded SGCB cell-surface expression functional score (log10) for "G106F"
OUT: -1.86

IN: Provide only the value of recorded SGCB cell-surface expression functional score (log10) for "G236M"
OUT: -2.18

IN: Provide only the value of recorded SGCB cell-surface expression functional score (log10) for "K202T"
OUT: 0.12
